Reported Screen Rabbit/No Protein values are given for each entry in this list.
- Tested on: rabbit vWF A1 domain (SEQ ID NO 6)
- Sequence (as listed by the source): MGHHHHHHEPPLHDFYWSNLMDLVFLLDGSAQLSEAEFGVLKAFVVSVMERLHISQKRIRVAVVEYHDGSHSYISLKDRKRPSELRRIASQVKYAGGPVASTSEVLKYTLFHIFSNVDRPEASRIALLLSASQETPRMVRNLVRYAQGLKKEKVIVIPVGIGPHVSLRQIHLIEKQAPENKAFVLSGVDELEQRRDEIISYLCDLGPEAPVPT
- measurementProtocol: 3-point dot blot screen, rabbit vWF A1 domain
- Type: binding
- experimentalParameters: 3-point dot blot screen, 20 nM rabbit vWF A1 domain; ratio of fraction of aptamer bound with target protein to fraction bound without protein
API note: the answer field is a bare number with no unit suffix.

AMX236.C6: DNA SELEX 2 aptamer clone (nucleic acid, DNA, backbone not given here, DNA SELEX 2 aptamer clone) CTACCTACGATCTGACTAGCGGAATGAGAGTGCTGGTGGATTGCTCAGGTCTGCTGGCTGCTTACTCTCATGTAGTTCC: 5.77

[Q] Requested field: Screen Rabbit/No Protein. Item: AMX237.C7: DNA SELEX 2 aptamer clone (nucleic acid, DNA, backbone not given here, DNA SELEX 2 aptamer clone) DNA: CTACCTACGATCTGACTAGCTCCAGTGTTTTATTCAATAACCGTGCGGTGCCTCCGTGATGCTTACTCTCATGTAGTTCC
[A] 1.16

[Q] Same question for AMX236.C9: DNA SELEX 2 aptamer clone (nucleic acid, DNA, backbone not given here, DNA SELEX 2 aptamer clone) CTACCTACGATCTGACTAGCCAGTTCTGGGAAAAATTATTTTTTTATTTCGATCGTATTTGCTTACTCTCATGTAGTTCC please.
[A] 1.00

[Q] Would you mind doing AMX236.B3: DNA SELEX 2 aptamer clone (nucleic acid, DNA, backbone not given here, DNA SELEX 2 aptamer clone) CTACCTACGATCTGACTAGCCTTACCTATTCCCTTCTGCGGAATACGTCGAGTACTATGCTTACTCTCATGTAGTTCC as well?
[A] 1.41
